Entries annotated with measured PBM E-score
- tgt: Abf1 (UniProt P14164)
- Sequence: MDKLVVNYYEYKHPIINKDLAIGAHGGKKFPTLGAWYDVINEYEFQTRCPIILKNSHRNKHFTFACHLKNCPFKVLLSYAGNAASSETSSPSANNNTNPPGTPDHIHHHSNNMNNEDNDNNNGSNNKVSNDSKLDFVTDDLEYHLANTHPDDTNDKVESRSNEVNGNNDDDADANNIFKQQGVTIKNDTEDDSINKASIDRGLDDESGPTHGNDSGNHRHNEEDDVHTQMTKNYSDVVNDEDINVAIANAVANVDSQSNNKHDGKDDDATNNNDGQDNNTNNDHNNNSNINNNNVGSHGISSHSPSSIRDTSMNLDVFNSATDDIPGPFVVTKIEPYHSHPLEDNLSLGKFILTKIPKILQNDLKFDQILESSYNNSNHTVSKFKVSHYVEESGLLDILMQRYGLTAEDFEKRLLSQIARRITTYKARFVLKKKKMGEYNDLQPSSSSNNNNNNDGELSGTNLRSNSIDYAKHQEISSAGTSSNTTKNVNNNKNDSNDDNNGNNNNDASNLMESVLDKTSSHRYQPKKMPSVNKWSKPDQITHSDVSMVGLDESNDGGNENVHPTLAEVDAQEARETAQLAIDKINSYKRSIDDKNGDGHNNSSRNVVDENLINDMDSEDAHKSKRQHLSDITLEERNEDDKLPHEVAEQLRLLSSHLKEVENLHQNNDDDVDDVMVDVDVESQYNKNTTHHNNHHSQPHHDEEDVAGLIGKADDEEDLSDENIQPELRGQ
- assay_name: PBM E-score (8-mer binding enrichment) (E-score (-0.5 to 0.5)); higher = stronger / more preferred TF binding
- condition_details: protein concentration: 200 nM; construct: GST-full length
The full ranking holds about 33,000 sequences; the median of “E-score (-0.5 to 0.5)” is about -0.015, and the highest 2% start at about 0.3. This excerpt belongs to a sample that is enriched for the highest values.
The reply should be a number, written without any unit.

[
  {
    "chain": "ATCAGGAC",
    "observed_result": 0.103
  },
  {
    "chain": "AGACGATC",
    "observed_result": 0.113
  },
  {
    "chain": "AGTCCACC",
    "observed_result": -0.0728
  },
  {
    "chain": "GGAAGGAC",
    "observed_result": 0.0147
  },
  {
    "chain": "CGTGTCAG",
    "observed_result": 0.27
  },
  {
    "chain": "ATTTTTTA",
    "observed_result": 0.193
  },
  {
    "chain": "TCGCGGAA",
    "observed_result": 0.0001
  },
  {
    "chain": "ATACGTAA",
    "observed_result": 0.24
  }
]

### Prompt Form field: reported PBM E-score of `AACCGTCG`
### Response 0.298

### Prompt Same question, `TCCGTAAA` this time
### Response 0.145

### Prompt Please do the same for `CGACGTAC` as well.
### Response 0.322
